src = patent US11939314B2

Target: PDGFRalpha(V561D) (Homo sapiens, UniProt P16234, V561D)
Construct: recombinant human PDGFRalpha, amino acids 550end containing the V561 D mutation; 6His (N)
Sequence (P16234 550-1089 V561D): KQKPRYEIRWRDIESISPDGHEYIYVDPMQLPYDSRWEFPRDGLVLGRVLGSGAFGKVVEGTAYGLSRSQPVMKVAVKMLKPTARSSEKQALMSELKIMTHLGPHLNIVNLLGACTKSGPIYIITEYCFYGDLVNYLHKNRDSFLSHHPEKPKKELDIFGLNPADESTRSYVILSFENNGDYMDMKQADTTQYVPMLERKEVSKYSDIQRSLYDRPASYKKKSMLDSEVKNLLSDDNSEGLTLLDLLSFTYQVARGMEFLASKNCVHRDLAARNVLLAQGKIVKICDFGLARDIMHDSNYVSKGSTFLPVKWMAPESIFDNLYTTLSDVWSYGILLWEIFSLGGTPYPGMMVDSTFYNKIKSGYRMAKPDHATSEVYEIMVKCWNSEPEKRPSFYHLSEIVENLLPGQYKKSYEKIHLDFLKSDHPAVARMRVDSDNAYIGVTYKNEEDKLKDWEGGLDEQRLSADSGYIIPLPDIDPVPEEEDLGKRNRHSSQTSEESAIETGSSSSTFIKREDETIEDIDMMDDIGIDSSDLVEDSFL
Assay: PDGFRalpha(V561D) assay
Conditions: recombinant human PDGFRalpha aa 550-end, 200 μM ATP, 1.4E-06 means 1.4×10^−6, read-out: Inhibition (IC50) of PDGFRα (V561D)
endpoint: IC50

Please review the following examples before continuing.
# compound, targetUnderTest, IC50
data = [
    ("CN1CCN(C(=O)c2cccc(-n3cc(-c4cc5ccccc5[nH]c4=O)nn3)c2)CC1 [A79]", "PDGFRalpha(V561D) (Homo sapiens, UniProt P16234, V561D)", "31 nM"),
    ("O=c1[nH]c2ccc(F)cc2cc1-c1cn(-c2ccc(OCCC3CCNCC3)cc2)nn1 [A133]", "PDGFRalpha(V561D) (Homo sapiens, UniProt P16234, V561D)", "6.4 nM"),
]

The following compounds each have a reported value; give each one's IC50.
1. O=C(Cn1ccc2cc(-n3cc(-c4cc5cc(F)c(F)cc5[nH]c4=O)nn3)ccc21)N1CCNCC1 [A139]
2. CC(=O)N1CCN(CCOc2ccc(-n3cc(-c4cc5cc(F)c(F)cc5[nH]c4=O)nn3)cc2)CC1 [A101]
3. CN(C)C[C@H]1CCCN1C(=O)c1ccc(-n2cc(-c3cc4cc(F)ccc4[nH]c3=O)nn2)cc1 [A321]
4. CN1CCN(C(=O)c2ccc(-n3cc(-c4cc5cccnc5[nH]c4=O)nn3)cc2)CC1 [A64]
5. COCCO[C@H]1CCN(C(=O)c2ccc(-n3cc(-c4cc5cc(F)ccc5[nH]c4=O)nn3)cc2)C1 [A251]
6. O=c1[nH]c2ccncc2cc1-c1cnn(-c2ccccc2)c1 [A46]
7. O=C(c1ccc(-n2cc(-c3cc4cc(F)ccc4[nH]c3=O)nn2)cc1)N1CCCCC12COC2 [A245]

Result ::
["3800 nM", "290 nM", "370 nM", "16 nM", "400 nM", "150 nM", "470 nM"]

---

Kindly supply the reported pIC50 values for the records listed here.
Biological target: c-Kit(V654A) (Homo sapiens, UniProt P10721, V654A)
Construct: amino acids 544-end containing the V654A mutation; GST (N)
Sequence (P10721 544-976 V654A): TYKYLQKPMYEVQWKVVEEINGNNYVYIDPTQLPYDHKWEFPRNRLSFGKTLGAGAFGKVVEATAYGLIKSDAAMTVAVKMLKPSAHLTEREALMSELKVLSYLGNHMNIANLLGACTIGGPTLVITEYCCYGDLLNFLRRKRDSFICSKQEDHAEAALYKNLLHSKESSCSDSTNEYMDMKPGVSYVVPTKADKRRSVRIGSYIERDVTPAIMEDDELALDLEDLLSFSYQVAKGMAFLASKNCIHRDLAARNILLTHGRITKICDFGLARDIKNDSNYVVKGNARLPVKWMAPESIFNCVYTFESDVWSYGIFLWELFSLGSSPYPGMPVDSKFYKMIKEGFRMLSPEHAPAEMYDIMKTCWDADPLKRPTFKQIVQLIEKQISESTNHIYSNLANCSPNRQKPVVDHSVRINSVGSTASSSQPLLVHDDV
Test: c-Kit(V654A) assay
Details: recombinant human c-Kit aa 544-end, 200 μM ATP, 1.4E-06 means 1.4×10^−6, read-out: Inhibition (IC50) of c-KIT (V654A)
Answers are plain numbers, as −log10 of the molar value.

Solved cases (7 shown):
# molecule, pIC50
rows = [
    ("O=C(c1ccc(-n2cc(-c3cc4ccccc4[nH]c3=O)nn2)cc1)N1CCOCC1 [A2]", 7.29),
    ("CO[C@H]1CN(C(=O)c2ccc(-n3cc(-c4cc5cc(Cl)ccc5[nH]c4=O)nn3)cc2)C[C@@H]1OC [A272]", 7.32),
    ("COCC1CCN(C(=O)c2ccc(-n3cc(-c4cc5cc(F)ccc5[nH]c4=O)nn3)cc2)C1 (centres unmarked) [A106]", 8.04),
    ("CN(C)[C@H]1CCCN(C(=O)c2ccc(-n3cc(-c4cc5cc(F)ccc5[nH]c4=O)nn3)cc2)C1 [A332]", 7.15),
    ("O=c1[nH]c2ccc(F)cc2cc1-c1cn(-c2ccc(OC3CCCC3)cc2)nn1 [A364]", 7.68),
    ("CN1CCN(C(=O)c2ccc(-n3cc(-c4cc5cc(F)ccc5[nH]c4=O)cn3)cc2)CC1 [A296]", 7.42),
    ("CN(C)C[C@H]1CCCN1C(=O)c1ccc(-n2cc(-c3cc4cc(F)ccc4[nH]c3=O)cn2)cc1 [A325]", 7.77),
]

Continue with the molecule presented below.
Query :: Dear colleague, I am looking for the recorded pIC50 of the following molecule: COCCOC[C@H]1CCN(C(=O)c2ccc(-n3cc(-c4cc5cc(F)ccc5[nH]c4=O)nn3)cc2)C1 [A236]
Result :: 7.28
